- Target: recombinant human MMP-13 (Homo sapiens)
- Construct: made in house; host or cells: baculovirus (pBlueBac4 / Bac-N-Blue; virus made in Sf9), expressed in High-Five insect cells; culture supernatant used
- Measurement description: Assay of MMP-13 inhibiting activity (fluorogenic peptide substrate)
- Type: biochemical
- Study conditions: Table 9; 37° C., 2 hours
Record form. Attribute: IC50. Fill in for each entry.
Numbers only, in nM.

A selection of reference data follows.
[[record]]
compound = "CC(=O)Nc1ccc(Oc2ccc(CN3CC(SC(C)=O)CC3=O)cc2)cc1 (stereo not shown) [Example 144]"
measure_unit = "nM"
quantitative_result = 2.7

[[record]]
compound = "O=C1C[C@@H](S)CN1Cc1ccc(Oc2ccc(Br)cc2)cc1 [Example 200]"
measure_unit = "nM"
quantitative_result = 2

[[record]]
compound = "COc1ccc(Oc2ccc(CN3CC(S)CC3=O)cc2)cc1 (stereo not shown) [Example 37]"
measure_unit = "nM"
quantitative_result = 5

[[record]]
compound = "O=C1CC(S)CN1Cc1ccc(Oc2ccc(Br)cc2)cc1 (stereo not shown) [Example 35]"
measure_unit = "nM"
quantitative_result = 6

[[record]]
compound = "CCOC(=O)c1ccc(Oc2ccc(CN3CC(SC(C)=O)CC3=O)cc2)cc1 (stereo not shown) [Example 131]"
measure_unit = "nM"
quantitative_result = 20


Field: IC50. Fill in for each record below.
1. O=C1CC(S)CN1Cc1ccc(Oc2ccc(F)cc2F)cc1 (stereo not shown) [Example 120]
2. CS(=O)(=O)Nc1ccc(Oc2ccc(CN3CC(S)CC3=O)cc2)cc1 (stereo not shown) [Example 147]
3. O=C1C[C@@H](S)CN1Cc1ccc(Oc2ccc(F)cc2)cc1 [Example 118]
4. CC(=O)S[C@H]1CC(=O)N(Cc2ccc(Oc3ccc(F)cc3)cc2)C1 [Example 116]
5. COc1ccc(Oc2ccc(CN3CC(SC(C)=O)CC3=O)cc2)cc1 (stereo not shown) [Example 36]
6. CC(=O)S[C@@H]1CC(=O)N(Cc2ccc(Oc3ccc(Br)cc3)cc2)C1 [Example 199]
7. CC(=O)SC1CC(=O)N(Cc2ccc(Oc3ccc(C(N)=O)cc3)cc2)C1 (stereo not shown) [Example 134]
8. O=C1C[C@@H](S)CN1Cc1ccc(Oc2ccc(Cl)cc2)cc1 [Example 126]

1. 7
2. 1.2
3. 2
4. 7000
5. 50
6. 6
7. 29
8. 1.7

Go through the items and report each one's IC50.
1. CCOc1ccc(Oc2ccc(CN3CC(SC(C)=O)CC3=O)cc2)cc1 (stereo not shown) [Example 138]
2. NC(=O)c1ccc(Oc2ccc(CN3CC(S)CC3=O)cc2)cc1 (stereo not shown) [Example 135]
3. CC(=O)SC1CC(=O)N(Cc2ccc(Oc3ccc(OC(F)(F)F)cc3)cc2)C1 (stereo not shown) [Example 140]

20
9.2
20

Numbers sourced from patent US6953789B2.
